Measured target: Torsin-1A-interacting protein 1 (Homo sapiens)
Procedure summary: LAP1 binders from COS7 cell lysate, primary screen, small-molecule microarray, 635/667 nm fluorescence (AID 1116)
Cond: COS7-hLAP1 lysate binding, 635 nm fluorescence, higher = more signal
composite z-score below 0.5 gives Condition not met; composite z-score at or above it gives Condition met.

API: above_or_equal(metric=composite z-score, cutoff=0.5) for item "COC(=O)[C@@]1(Cc2ccc(F)cc2)[C@H]2c3cc(C(=O)N(C)C)n(Cc4c(CO)[nH]cc(C)c4=O)c3C[C@H]2CN1C(=O)c1ccccc1"
Condition met

API: above_or_equal(metric=composite z-score, cutoff=0.5) for item "CCOC(=O)C[C@H]1[C@H](OC(=O)c2ccc(-c3ccccc3)cc2)[C@@H](NC(=O)Cc2ccc(OC)cc2)c2cc(OCCCO)ccc2N1C(=O)Cc1ccc(OC)cc1"
Condition not met

API: above_or_equal(metric=composite z-score, cutoff=0.5) for item C=CCC(OC(C)=O)[C@@H]1[C@@H](N(Cc2ccc(-c3cccc(C(F)(F)F)c3)o2)C(=O)c2cccc3ccccc23)c2cc(OCCCO)ccc2N1C(=O)Cc1ccc(OC)cc1 (stereo partly specified)
Condition not met

API: above_or_equal(metric=composite z-score, cutoff=0.5) for item "CCOC(=O)C1=CC[C@@H](c2ccccc2)N(S(=O)(=O)c2ccc(C)cc2)[C@H]1C=Cc1ccccc1"
Condition not met

API: above_or_equal(metric=composite z-score, cutoff=0.5) for item COc1cc(NN2C(C(O)c3ccccc3)C=CC3C(=O)N(C)C(=O)C32)cc(OC)c1OC (stereo unspecified)
Condition met

API: above_or_equal(metric=composite z-score, cutoff=0.5) for item "CCOC(=O)C[C@H]1[C@H](OC(=O)c2ccccc2-c2ccccc2)[C@@H](NC(=O)c2ccc3ccccc3n2)c2cc(OCCCO)ccc2N1C(=O)c1ccccc1"
Condition not met

API: above_or_equal(metric=composite z-score, cutoff=0.5) for item "COC(=O)[C@@]1(Cc2ccc(F)cc2)[C@H]2c3cc(C(=O)N(C)C)n(Cc4ccc(O)c(OC)c4)c3C[C@H]2CN1C(=O)c1ccccc1"
Condition not met

API: above_or_equal(metric=composite z-score, cutoff=0.5) for item CCCCCN1CC=CC23O[C@@H]4C=CCOC(=O)[C@@H]4[C@H]2C(=O)N(CCO)[C@@H]3C1=O (stereo partly specified)
Condition met

API: above_or_equal(metric=composite z-score, cutoff=0.5) for item "COc1ccc(C(=O)Nc2cccc(CN3C(=O)[C@@]4(O[C@@H](CC(=O)N(CCO)Cc5ccccc5)[C@H]([Si](C)(C)c5ccc(OC)cc5)[C@H]4C)c4ccccc43)c2)cc1"
Condition met

API: above_or_equal(metric=composite z-score, cutoff=0.5) for item C=CCC(OC(C)=O)[C@@H]1[C@@H](N(Cc2ccc(-c3ccccc3)cc2)C(=O)Cc2ccc(F)cc2)c2cc(OCCCO)ccc2N1C(=O)Cc1ccc2ccccc2c1 (stereo partly specified)
Condition met

API: above_or_equal(metric=composite z-score, cutoff=0.5) for item O=C1C2C=CC(C(O)c3cccc(O)c3)N(Nc3ccccc3)C2C(=O)N1c1ccccc1 (stereo unspecified)
Condition met

API: above_or_equal(metric=composite z-score, cutoff=0.5) for item C=C(C)[C@@H]1CC=C(C(O)C2C=CC3C(=O)N(c4ccccc4)C(=O)C3N2Nc2ccc(C#N)cc2)CC1 (stereo partly specified)
Condition not met

API: above_or_equal(metric=composite z-score, cutoff=0.5) for item "COc1ccc(C#Cc2ccc3c(c2)[C@]2(C(=O)N3)[C@H](c3ccc(OCCO)cc3)N3[C@H](c4ccccc4)[C@H](c4ccccc4)OC(=O)[C@H]3[C@@H]2C(=O)N2CCc3cc(OC)c(OC)cc3C2)cc1"
Condition not met

API: above_or_equal(metric=composite z-score, cutoff=0.5) for item "C=CCNC(=O)[C@H]1[C@@H]2C(=O)O[C@@H](c3ccccc3)[C@@H](c3ccccc3)N2[C@@H](c2ccc(O)cc2)[C@]12C(=O)N(C(=O)OCCOC)c1ccc(C#CCC(C(=O)OC)C(=O)OC)cc12"
Condition met

API: above_or_equal(metric=composite z-score, cutoff=0.5) for item "C[C@@]12COC[C@]13C=C(Br)[C@H](C2)[C@@]1(CO1)C3=O"
Condition not met

API: above_or_equal(metric=composite z-score, cutoff=0.5) for item "Cc1ccc(S[C@]2(C(=O)NCc3ccccc3)CC(=O)N(Cc3cc(C(F)(F)F)cc(C(F)(F)F)c3)[C@@H]2c2ccc(CO)cc2I)cc1"
Condition not met

----------
Measured target: Carbonic anhydrase 2 (Homo sapiens)
Procedure summary: CAII small-molecule binders, profiling panel, biochemical, small-molecule microarray, Alexa647-labelled CAII (AID 1122)
Cond: CAII-A647 binding fluorescence, higher = more signal
Would you kindly list composite z-score for each of these compounds?
// return a plain number; no unit text

The recorded composite z-score for "CN(C)C(=O)[C@@]1(CCC(=O)OC(C)(C)C)N=C(c2ccc(OCCCO)cc2)O[C@H]1c1ccccc1CN=[N+]=[N-]" is 0.825

The recorded composite z-score for "C=CCNC(=O)[C@H]1[C@@H]2C(=O)O[C@@H](c3ccccc3)[C@@H](c3ccccc3)N2[C@@H](c2ccc(OCCO)cc2)[C@]12C(=O)Nc1ccc(C#CCNC(N)=O)cc12" is 0.587

The recorded composite z-score for CN1C(=O)C2C=CC(C(O)c3cc(C(F)(F)F)cc(C(F)(F)F)c3)N(NC(=O)OC(C)(C)C)C2C1=O (stereo not given) is 0.604

The recorded composite z-score for CC(C)C[C@@H]1NC(=O)[C@@]23C(=O)N[C@@H](Cc4ccccc4)C2[C@H](C)[C@@]2(C)O[C@H]2C3/C=C/C/C=C\CNC(=O)[C@@H](C)NC1=O (stereo not given in full) is 0.449

The recorded composite z-score for "CCOC(=O)C1=CC[C@@H](c2ccccc2)N(S(=O)(=O)c2ccc(C)cc2)[C@H]1C=Cc1ccccc1" is 0.707

----------
Measured target: Carbonic anhydrase 2 (Homo sapiens)
Procedure summary: CAII small-molecule binders, profiling panel, biochemical, small-molecule microarray, Alexa647-labelled CAII (AID 1122)
Cond: CAII-A647 binding fluorescence, higher = more signal
Test readout: composite z-score
// return a plain number; no unit text

The recorded composite z-score for "COCCOC(=O)N1C(=O)[C@@]2(c3cc(C#CCC(C(=O)OC)C(=O)OC)ccc31)[C@H](C(=O)NC[C@H](O)c1ccccc1)[C@H]1C(=O)O[C@H](c3ccccc3)[C@H](c3ccccc3)N1[C@@H]2c1ccc(O)cc1" is 0.614

The recorded composite z-score for "CCCNC(=O)[C@@]1(C)c2ccccc2C(=O)N(Cc2ccccc2)[C@H]1c1ccc(CO)cc1" is 0.71

The recorded composite z-score for "COCCCNC(=O)[C@@]1(Sc2ccc(C)cc2)CC(=O)N(C(C)C)[C@@H]1c1ccc(CO)cc1I" is 0.763

The recorded composite z-score for C=CCC(OC(C)=O)[C@@H]1[C@@H](N(Cc2cc3ccccc3o2)C(=O)c2ccc(-c3ccccc3)cc2)c2cc(OCCCO)ccc2N1C(=O)Cc1ccc(OC)cc1 (some centres undefined) is -0.284

The recorded composite z-score for "COC(=O)[C@@]1(Cc2ccc(F)cc2)[C@H]2c3cc(C(=O)N4CCCC4)n(CC4CC4)c3C[C@H]2CN1C(=O)c1ccccc1" is 0.765

The recorded composite z-score for "O=c1cccc(-c2ccco2)o1" is 0.25

The recorded composite z-score for "[N-]=[N+]=NCc1ccccc1C[C@@]1(C(=O)N2CCCCC2)N=C(c2ccc(OCCCO)cc2)O[C@@H]1c1ccccc1CN=[N+]=[N-]" is 0.711

The recorded composite z-score for "COCC(=C=CC[C@@H](O)c1cccc(OCCO)c1)CCO" is 0.708

The recorded composite z-score for "C=C[C@@H](OC)[C@H](OC(=O)Nc1ccc(SC)cc1)c1ccc(OCCO)cc1" is 0.361

----------
Measured target: Neurogenic locus notch homolog protein 3 (Homo sapiens)
Procedure summary: NOTCH3 binders on small-molecule microarray, primary screen, biochemical, 635/667 nm fluorescence (AID 1096)
Cond: NOTCH3 binding, 635 nm fluorescence, higher = more signal
Test readout: composite z-score
// return a plain number; no unit text

The recorded composite z-score for "C=C(/C(=C/C[C@@H](OC(=O)c1ccncc1)c1cccc(OCCO)c1)c1cnc2ccccc2c1)C(C)C" is 1.02

The recorded composite z-score for CC(C)C[C@@H]1NC(=O)CNC(=O)[C@@]23C(=O)N[C@@H](Cc4ccccc4)C2[C@H](C)[C@@]2(C)O[C@H]2C3/C=C/C/C=C\CNC1=O (stereo partly specified) is 1.01

The recorded composite z-score for "O=C(O)[C@@H]1C[C@@H]2C(=O)N3CCC[C@H]3C(=O)N2[C@@H]1c1cccc(OCCO)c1" is 1.07

The recorded composite z-score for "Cc1nc2cc(Br)ccc2c(=O)n1Cc1cccc(O)c1" is -0.108

The recorded composite z-score for "COCCOC(=O)N1C(=O)[C@@]2(c3ccccc31)[C@H](c1ccc(OCCO)cc1)N1[C@H](c3ccccc3)[C@H](c3ccccc3)OC(=O)[C@H]1[C@@H]2C(=O)N1CCCCCCC1" is 1

The recorded composite z-score for "[N-]=[N+]=NCc1ccccc1C[C@@]1(C(=O)N2CCCCC2)N=C(c2ccc(OCCCO)cc2)O[C@@H]1c1ccccc1CN=[N+]=[N-]" is 0.278

The recorded composite z-score for CCOC(=O)C1=CCC(c2ccccc2)N(S(=O)(=O)c2ccc([N+](=O)[O-])cc2)C1 (stereo unspecified) is 0.0968

The recorded composite z-score for "[N-]=[N+]=NCc1ccccc1[C@@H]1OC(c2ccc(OCCCO)cc2)=N[C@]1(Cc1ccccc1)C(=O)NCCN1CCOCC1" is 1.09

The recorded composite z-score for CC1(C)C(=O)C(c2ccccc2)=C2CN3C(=O)N(CCc4ccccc4)C(=O)C3(Cc3ccc(F)cc3)C=C21 (stereo unspecified) is 0.337

The recorded composite z-score for COc1cc(NN2C(C(O)C3CCCCC3)C=CC3C(=O)N(c4ccccc4)C(=O)C32)cc(OC)c1OC (stereo unspecified) is 1.07

The recorded composite z-score for "C=C(/C(=C/C[C@@H](OC(C)=O)c1ccc(CO)o1)c1cc(C(=O)OC)ccc1OC)C(C)C" is 0.213

The recorded composite z-score for "CCCC=C(CCC)[C@@H](NS(=O)(=O)c1cccc2cccnc12)c1ccc(-c2ccccc2)cc1" is 1.06

The recorded composite z-score for "CCCNC(=O)[C@@]1(Sc2ccc(C)cc2)CC(=O)N(C2CCCCC2)[C@@H]1c1ccc(CO)cc1I" is 0.298

The recorded composite z-score for "COCCOC(=O)N1C(=O)[C@@]2(c3cc(C#CC4=CCCCC4)ccc31)[C@H](c1ccc(O)cc1)N1[C@H](c3ccccc3)[C@H](c3ccccc3)OC(=O)[C@H]1[C@@H]2C(=O)NC[C@H](O)c1ccccc1" is 1.07

The recorded composite z-score for "[N-]=[N+]=Nc1ccccc1C[C@]1(C(=O)O)N=C(c2ccc(OCCCO)cc2)O[C@H]1c1ccccc1N=[N+]=[N-]" is 0.942

The recorded composite z-score for "C=CCN1C(=O)[C@]2(O[C@H](CCO)[C@@H]([Si](C)(C)c3ccc(OC)cc3)[C@@H]2C)c2cc(N3C(=O)COc4ccccc43)ccc21" is 0.763
